Assay: yeast display, Sf9 membrane polyspecificity reagent, FACS + sequencing; frameworks hold sequencing errors
measurement.kind: polyreactivity (PSR sort gate)

QVQLVESGGGLVQAGGSLRLSCAASGSILGINVMGWYRQAPGKERELVAAISWRVGRTYYADSVKGRFTISRDNAKKTDDLQMNSLKPEDTAVYYCNVDRWGNIPVGDYDYWGQGTEVTVSS	high polyreactivity
QVQLQESGGGLVQAGASLRLSCAASSNNSTLDVMGWYRQAPGKEREFVASIGSGGITNYADSVKGRFTISRDNAKNTVYLQMNSLKPEDTAVYYCAVLIQAYTDLIYWGQGTQVTLSS	high polyreactivity
QVQLVESGGGLVQAGGSLRLSCAASGRIFGWYAMGWYRQAPGKERELVAAISGRGGSTFYADSVKGRFTISRDNEKNTVYLQMNSLKPEDTAVYYCNAYSWYGYDYWGQGTQVTVSS	high polyreactivity
QVQLVESGGGLVQAGGSLRLSCGASGRNFPGNAMGWYRQAPGKEREFVAVITSRTGNTYYADSVKGRFTISRDTAKNTVYLQMNSLKPEDSAVYYCNGEQYIWSEDYWGQGTQVSVSS	low polyreactivity
QVQLVESGEGLVQAGGSLRLSCAASGITFGWYAMGWYRQAPGKERELVASISSSGSTNYADSVKGRFTISRDNAKNTVYLQMNSLKPEDTAVYYCNKDYLLSHYYIYVIEGDYWGQGTQVTVSS	low polyreactivity
QVQLVESGGGLVQAGGSLRLSCAASGSTFPDYAMGWYRQAPGKERELVAAISYRGGSTNYADSVKGRFTISRDNAKNTVYLQMNSLKPEDTAVYYCATDDYYPQPFYYEYDYWGQGSQVTVSS	low polyreactivity
QVQLVESGGGLVQAGGSLRLSCAASGRTFSYYVMGWYRQAAGKERELVAAISRTTRTYYADSVKGRFSISRDNAKNTVYLHMNSLKPEDTAVYYCAADFPKGHYHYWGHGTQVTVSS	high polyreactivity
QVQLVESGGGLVQAGGSLRLSCAASGRIFVKYAMGWYRQAPGKERELVAAIRSGGSTYYADSVKGRFTISRDNAKNTVYLQMNSLKPEDTAVYDCAADRNKHHYYTEPYDYWGQGTQVTVSS	low polyreactivity
QVQLVESGGGLVQAGGSLRLSCAASGRTFGYNVMGWYRQAPGKARELVAGIRYSGGSTYYADSVKGRFTISRDNAKNTVYLQMNSLKPEDTAVYYCHAVDRNQYDYWGQGTQVTVSS	high polyreactivity
QVQLVESRGGLVQAGGSLRLSCAASGRIFGTNAMGWYRQAPGRERELVATITRGGGNTYYADSVKGRFTISRDIAKNTVYLQMNSLKPEDTAVYYCAAKFHRFAWYSHYDYWGHGTQVTVSS	low polyreactivity
QVQLVESGGGLVQAGGSLRLICAASGNIFVPSAMGWYRQAPGKERELVAAINGGGSTNYADSVKGRFTISRDNAKNTVYIQMISLKPEDTAVNYCAAVWYFLSLWYDYWGQGTQVTVSS	high polyreactivity

====

Assay: yeast display, Sf9 membrane polyspecificity reagent, FACS + sequencing; frameworks hold sequencing errors
measurement.kind: polyreactivity (PSR sort gate)

QVQLVESGGGLVQAGGSLRLSCAASGFTFRYYAMGWYRQEPGKERELVARISSGGSTNYADSVKGRFTISRDNAKNTVYLQMNSLKPEDTSVKYCAARLDHWLIYAYDYWGQGTQVTVSS	high polyreactivity
QVQLVESGGGLVQAGGSLRLSCAASGFTFGANAMGWYRQAPGKERELVAAITKRGGNTYYADSVKGRFTISRDNAKNTVYLQMNSLKPEDTAVYYCARDYTHGYDYWGQGTQVTVSS	high polyreactivity
QVQLVESGGGLVQAGGSLRLSCAASAIIFAQYTMGWNRQAPGKERELVAAINRNGGSTYYADSVKGRFTISRDNAKNTVYLQMNSLKPEDTAVYYCNADALGFRYDYWGQGTQVTVSS	low polyreactivity
QVQLVESGGGLVQAGGSLRLICAASGSYAMGWYRQAPGKERELVASIDGPGGSTYYADSVKGRFTISRDNAKNTVYLQMNSLKPEDTAVYYCEDWAPGLYDYWGQGTQVTVSS	low polyreactivity
QVQLVESGGGLVQAGGSLRLSCAASGSTFASYAMGWYRQAPGKERELVAAISSSGARTYYADSVKGRFTISRDNAKNTVYLQMNSLKPEDTAVYYCATDSKITETSLRYDYWGQGTQVTVSS	high polyreactivity

====

Assay: yeast display, Sf9 membrane polyspecificity reagent, FACS + sequencing; frameworks hold sequencing errors
measurement.kind: polyreactivity (PSR sort gate)

QVQLVESGGGLVQAGGSLRLSCAASGSTFWKYAMGWYRQAPGKEREFVAAITRSGGNTYYADSVKGRFTISRDNAKNTVYLQMNSLKPEDTALYYCAIVYKLITSYRGFGYWGQGTQVTVSS	high polyreactivity
QVQLVESGGGLVQAGGSLRLSCAASGNTFVRYDMGWYRQAPGKEREFVAAITASGGSTYADSVKGRFTISRDNAKNTVYLQMNSLKPEDTAVYYCNAGNSSTGVDRYDYWGQGTQVTVSS	low polyreactivity
QVQLVESGGGLVQAGGSLRLSCAASGRIFKYYAMGWYRQAPGKERELVAAITSGGSTYYADSVKGRFTISRDNAKNTVYLQMNSLKPEDTAVYYCNADGYLSYAFDYWGQGTQVTVSS	low polyreactivity
QVQLVESGGGLLQAGGSLRLSCAASGRNFKYYAMGWYRQAPGKEREFVAAISRSGGRTYYADSVKGRFTISRDNAKNTVYLQMNSLKPEDTAVYYCAAQPSSYVYYRQPFHYWGQGTQVTVSS	high polyreactivity
QVQLVESGGGLVQAGGSLRLSCAASGFTFAFYAMGWYSPAPGKVRELVAAISWDGVTTYYADSVKGRFTISRDNAKNTVYLQMNSLKPEDTAVYYCAADYPDYAASFWPSGMYYWGQGTQVTVSS	low polyreactivity
QVQLVESGGGLVQAGGSLRLSCAASGNIFDAYGMGWNRQAPGKETELVAAIDWTGGSTYYADSVKGRFTISRDNAKNTVYLQMNSLKPEDTAVYYCAADWGGGYQQYGNDWVNYWGQGTQVTVSS	low polyreactivity
QVQLVESGGGLVQAGGSLRLSCAASGSTFKRNAMGWYRQAPGIERELVAAISYSGGSTYYADSMKGRFTISRDNAKNTVYLQMNSLKPEDTAVYYCWGPGTQVTVSS	low polyreactivity
QVQLVESGGGLVQAGGSLRLSCAASGSTFAGYVMGWYRQAPGKERELVAAISRSGGSTYYADSVKGRFTISRDNAKNTVYLQMNSLKPEDTAVYYCAARNSPGFPGDYWGHGTQVTVSS	high polyreactivity
QVQLVESGGGLVQAGGSLRLSCAASGSTYRPYAMGWYRQAPVKERELVAAISWSGGRTYYADSVKGRFTISRDNAKNNVYLPMNSLKPEDTAVYYCNRAGRQPKNTYDYWGQGTQVTVSS	high polyreactivity
QVQLVESGGGLVQAGGSLRISCAASGRIFGGYAMGWYRQAPGKERELVAAITSGARTKYADSVKGRFTISRDNAKNTVYLQMNSLKPEDTAVYYCAADGFYDGDYWGQGTQVTVSS	high polyreactivity
QVQLVESGGGLVQAGGSLRLSCAASGRTFYTYAMGWYRQAPGKERELVAAISSDGSTYYADSVKGRFTISRDNAKNTVYLQMNSLKPEDTAVYYCAADYSPWYWGYTYYYWGQGTQVTVSS	high polyreactivity
QVQLVESGGGLVQAGGSLRLSCAASGRIFGINVMGWYRQAPGKERELVAAISYRTGSTYYADSVKGRFTISRDNAKNTVYLQMNSLKPEDTAVYYCAAQRRIRTAWYDYWGQGTQVTVSS	high polyreactivity
QVQLVESGGGLVQAGGSLRLSCAASGSSRYAMGWYTPAPGKERELVAVITLSGGITYADSVKGRFTISRDNAKNTVYLQMKSLKPEDTAVYYCNADYGDWPTGGDYWGQGTQVTVSS	low polyreactivity
QVQLVESGGGLVQAGGSLRLSCAASGLTFKVYDMGWYRQAPGKERELVAAISWSGGSTYYADSVKGRFTISRDNAKNTVYLQMNSLKPEDTAVYFCAVEPSYYVVFFPYEYWGQGTQVTVSS	low polyreactivity
QVQLVESGVGLVQAGGSLRLSCAASGRIFYTYAMGWYRQAPGKERELVAAISSRTGSTYYADSVKGRFTISRDNAKNTVYLQMNSLKPEDTAVYYCAAYLWKSKRKLDYWGQGTQVTVSS	high polyreactivity
QVQLVESGGGLVQAGGSLRLSCAASGSIFSYNAMGWYRQAPGKERELVAAIRASGGDTYYADSVKGRFTISRDNAKNTVYLQMNSLKPEDTAVYYCAARTYAHHYASHGYWGQGTQVTVSS	low polyreactivity
QVQLVESGGGLVQAGGSLRLSCAASGRNFPDNTMGWYRHAPGKERELVATIAWIGASTYYADSEKGRFTISRDNAKNTVYLQMNSLKPEDTAVDYCAGTTSHRWYGFNSKYDFDYWGQGTQVTVSS	low polyreactivity
QVQLVESGGGLVQAGGSLRLSCAASGSTFYYNAMGWYRQAPGKERELVAAISRSGGRTYYADSVKGRFTISRDNAKNTVYLQMNSLKPEDTAVYYCAADAPGHEYYYWGQGTQVTVSS	high polyreactivity
QVQLVESGGGVVQAGGTLRLSCAASGINFIDNTMGWYRQAPGKEREFVATISANSDGTYYADSVKRRFTISRDNAKKTVYLQMNSLKPEETAVYYWGQGTQVTVSS	low polyreactivity
QVQLVESGAGLVQAGGSLRLSCAASGRTFWSNAMGWYRQAPGKEREFVAAIRSTVGSTYYADSVKGRFTISRDNAKNTVYLQMNSLNPEDTAVYYCYVSSGYYAYYYWGQGTQVTVSS	high polyreactivity
QVQLVESGGGLVQAGGSLRLSCAASGRTFGNYAMGWYRQAPGKDRELVAALSTTGGRTSYADSVKGRFTISRDNAKNTVYLQMNSLKPEDTAVYYCNVYTTSQARRKRIDYDFWGQGTQVTVSS	high polyreactivity
